The values you see were collected from ChEMBL document CHEMBL1201862.

biological target: Acyl-homoserine lactone acylase PvdQ (Pseudomonas aeruginosa (strain LESB58)) (UniProt Q9I194); assay: P. aeruginosa growth delay under iron chelation, dose response, absorbance, plate reader, cherry-picks (AID 602389); format: functional
Only a part of the results of these assays is listed, not drawn at random.

Smiles text: COc1ccc(C2=C(C=O)Cc3ccccc3O2)cc1
AbsAC35: 210 µM (active)
//
Smiles text: C=CCOC(=O)c1ccc(-n2cnc(C)n2)nc1
AbsAC35: 89.1 µM (active)
//
Smiles text: N#CN(Cc1ccccc1)Cc1ccccc1
AbsAC35: 477 µM (active)
//
Smiles text: N#Cc1cc(-c2ccccc2)cnc1Cl
AbsAC35: 74.1 µM (active)
//
Smiles text: C#CCSc1ncc(-c2ccccc2)cn1
AbsAC35: 214 µM (active)
